experiment: Clearance in dog at 2 mg/kg, iv; assay type: ADME, organism-based, Canis lupus familiaris; conditions: in vivo
observed.property: clearance (mL/min/kg)

CNC(=O)c1ccc2c3c1CCN3CCNC2 : 18.3
C[C@H]1CN2CCNCc3ccc(C(=O)NCC(F)F)c1c32 : 20.7

* * *

assay: Half life in dog at 2 mg/kg, iv; assay type: ADME, organism-based, Canis lupus familiaris; details: in vivo
observed.property: half-life (h)

C[C@H]1CN2CCNCc3ccc(C(=O)NCC(F)F)c1c32 [BEXICASERIN] : 1.3
CNC(=O)c1ccc2c3c1CCN3CCNC2 : 1.38

* * *

biological target: 5-hydroxytryptamine receptor 2C (Homo sapiens, UniProt P28335)
Sequence (P28335 whole entry): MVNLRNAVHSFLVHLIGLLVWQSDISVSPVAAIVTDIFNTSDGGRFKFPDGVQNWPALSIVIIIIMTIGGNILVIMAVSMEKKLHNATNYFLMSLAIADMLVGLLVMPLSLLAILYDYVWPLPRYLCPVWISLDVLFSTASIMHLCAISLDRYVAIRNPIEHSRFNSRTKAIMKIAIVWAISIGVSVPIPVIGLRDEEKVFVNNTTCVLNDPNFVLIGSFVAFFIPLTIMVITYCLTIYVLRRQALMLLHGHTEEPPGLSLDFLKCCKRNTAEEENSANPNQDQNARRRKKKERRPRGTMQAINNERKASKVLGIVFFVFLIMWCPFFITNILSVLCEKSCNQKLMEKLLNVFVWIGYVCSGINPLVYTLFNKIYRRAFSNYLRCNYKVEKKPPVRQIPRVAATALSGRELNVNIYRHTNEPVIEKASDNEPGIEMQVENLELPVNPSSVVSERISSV
pEC50: −log10 of the molar value.
observed.property: pEC50

O=C(NCCCl)c1ccc2c3c1CCN3CCNC2 : 7.48

1. CC(C)NC(=O)c1ccc2c3c1CCN3CCNC2
2. O=C(NCC(F)F)c1ccc2c3c1C(CC(F)(F)F)CN3CCNC2 (racemic)
Q: From the recorded data, which exceeds the other in pEC50: 1 or 2 ? Bench note: the answer is the label of the chosen record.
Result: 2
(2: 7.85, 1: 5.41)

* * *

test: Half life in Cynomolgus monkey at 2 mg/kg, iv; type: ADME, organism-based, Macaca fascicularis; details: in vivo
observed.property: half-life (h)

A. C[C@H]1CN2CCNCc3ccc(C(=O)NCC(F)F)c1c32 [BEXICASERIN]
B. CNC(=O)c1ccc2c3c1CCN3CCNC2
Q: Just curious, which one has the larger half-life reading, A or B ? Field: selected label. Fill in the label of the entry you choose.
Result: A

* * *

tested on: Rattus norvegicus; experiment: Hypophagic effect in fasted male Sprague-Dawley rat assessed as inhibition of food intake at 10 mg/kg, po measured after 1 hr relative to control; assay type: functional; conditions: 10 mg/kg
Measured inhibition (INH) of individual entries
Provide only the numeric value, understood in %.

Before answering, review these 3 worked examples.
CCC1CN2CCNCc3ccc(C(=O)NC)c1c32 (single isomer, unassigned; (-)) : 0
CCC1CN2CCNCc3ccc(C(=O)NC)c1c32 (single isomer, unassigned; (+)) : 63
CNC(=O)c1ccc2c3c1C(CC(F)(F)F)CN3CCNC2 (single isomer, unassigned; (+)) : 83

Shifting focus to the molecule that follows.
Q: Answer with the recorded inhibition (INH) of CNC(=O)c1ccc2c3c1C(CC(F)(F)F)CN3CCNC2 (single isomer, unassigned; (-)) only.
Result: 0

* * *

test: Clearance in Cynomolgus monkey at 2 mg/kg, iv; assay type: ADME, organism-based, Macaca fascicularis; details: in vivo
observed.property: clearance (mL/min/kg)

I. C[C@H]1CN2CCNCc3ccc(C(=O)NCC(F)F)c1c32 [BEXICASERIN]
II. CNC(=O)c1ccc2c3c1CCN3CCNC2
Q: Two entries are listed, I and II . Which one carries the higher clearance? Could you answer with the label of the item you picked?
Result: II

* * *

experiment: AUC (0 to infinity) in mouse at 2 mg/kg, iv; type: ADME, organism-based; conditions: in vivo
observed.property: AUC(0-inf) (ng·h/mL)

C[C@H]1CN2CCNCc3ccc(C(=O)NCC(F)F)c1c32 : 318
CNC(=O)c1ccc2c3c1CCN3CCNC2 : 340

* * *

test: AUC (0 to infinity) in rat at 2 mg/kg, iv; assay type: ADME, organism-based; conditions: in vivo
observed.property: AUC(0-inf) (ng·h/mL)

C[C@H]1CN2CCNCc3ccc(C(=O)NCC(F)F)c1c32 [BEXICASERIN] : 577
CNC(=O)c1ccc2c3c1CCN3CCNC2 : 770

* * *

experiment: Renal clearance in rat at 2 mg/kg, iv; assay type: ADME, organism-based; conditions: in vivo
observed.property: CL renal (mL/min/kg)

a. CNC(=O)c1ccc2c3c1CCN3CCNC2
b. C[C@H]1CN2CCNCc3ccc(C(=O)NCC(F)F)c1c32
Q: Which record shows the lower CL renal: the first, a , or the second, b ? Record your answer as the label of the chosen record.
Result: b
(b: 9.65 mL/min/kg, a: 24 mL/min/kg)

* * *

assay: Volume of distribution at steady state in rat at 2 mg/kg, iv; format: ADME, organism-based; details: in vivo, read-out: Vdss
observed.property: Vd (L/kg)

P. CNC(=O)c1ccc2c3c1CCN3CCNC2
Q. C[C@H]1CN2CCNCc3ccc(C(=O)NCC(F)F)c1c32
Q: Response body: label of entry with the larger Vd; valid values P , Q . Lab note: record the label of whichever item you select.
Result: Q
(Q: 3.69 L/kg, P: 1.89 L/kg)

* * *

Entries below carry reported Ki on 5-hydroxytryptamine receptor 2B (Homo sapiens).
Sequence (P41595 whole entry): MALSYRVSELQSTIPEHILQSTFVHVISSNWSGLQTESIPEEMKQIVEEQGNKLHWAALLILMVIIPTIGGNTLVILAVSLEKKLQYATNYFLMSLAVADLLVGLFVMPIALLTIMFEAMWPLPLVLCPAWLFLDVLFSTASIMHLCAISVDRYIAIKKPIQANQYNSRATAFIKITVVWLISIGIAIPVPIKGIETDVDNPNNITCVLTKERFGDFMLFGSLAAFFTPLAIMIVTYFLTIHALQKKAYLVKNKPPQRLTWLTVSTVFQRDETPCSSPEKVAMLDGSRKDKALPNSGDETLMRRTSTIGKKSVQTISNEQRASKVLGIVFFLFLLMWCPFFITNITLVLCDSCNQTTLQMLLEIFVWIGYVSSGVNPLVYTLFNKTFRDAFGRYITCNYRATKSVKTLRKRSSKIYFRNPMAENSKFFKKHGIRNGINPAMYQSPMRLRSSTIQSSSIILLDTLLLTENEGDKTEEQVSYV
observed.property: Ki (µM)

The following compounds have reported results that may help.
O=C(NCCCl)c1ccc2c3c1CCN3CCNC2 : 2.49
CNC(=O)c1ccc2c3c1C(CC(F)F)CN3CCNC2 (racemic) : 0.804
COC(C)CNC(=O)c1ccc2c3c1CCN3CCNC2 (centres undefined) : 7.73

P. CCNC(=O)c1ccc2c3c1C(CC(F)(F)F)CN3CCNC2 (racemic)
Q. O=C(NCC(F)(F)F)c1ccc2c3c1C(CC(F)(F)F)CN3CCNC2 (racemic)
Q: Of P and Q , whose reported Ki is the larger number? Give the chosen item's label as your response.
Result: P

* * *

target: 5-hydroxytryptamine receptor 2A (Homo sapiens)
Sequence (P28223 whole entry): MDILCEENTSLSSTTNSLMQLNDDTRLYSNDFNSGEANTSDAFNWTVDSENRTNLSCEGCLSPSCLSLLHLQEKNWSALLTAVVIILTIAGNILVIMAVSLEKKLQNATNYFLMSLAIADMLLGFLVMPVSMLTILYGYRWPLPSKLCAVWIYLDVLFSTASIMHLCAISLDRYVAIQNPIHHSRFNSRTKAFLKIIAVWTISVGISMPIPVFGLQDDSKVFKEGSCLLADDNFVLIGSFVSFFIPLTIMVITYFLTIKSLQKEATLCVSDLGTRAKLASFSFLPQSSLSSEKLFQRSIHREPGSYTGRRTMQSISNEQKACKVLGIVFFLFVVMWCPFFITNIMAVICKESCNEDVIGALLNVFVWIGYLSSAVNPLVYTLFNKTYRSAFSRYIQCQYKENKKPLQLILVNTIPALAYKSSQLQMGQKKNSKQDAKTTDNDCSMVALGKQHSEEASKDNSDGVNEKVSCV
observed.property: Ki

Worked examples, 2 compounds total:
CCOCCNC(=O)c1ccc2c3c1CCCN3CCNC2 : > 50 µM
CS(=O)(=O)CCNC(=O)c1ccc2c3c1CCN3CCNC2 : > 30 µM

Please turn your attention to the following entry.
Q: Answer briefly: Ki recorded on 5-hydroxytryptamine receptor 2A (Homo sapiens) for `CC(C)NC(=O)c1ccc2c3c1CCN3CCNC2`
Result: > 30 µM

* * *

// endpoint pEC50 / system 5-hydroxytryptamine receptor 2C (Homo sapiens, UniProt P28335)
pEC50: −log10 of the molar value.
observed.property: pEC50

Recorded pEC50, per entry:
O=C(NCC1CC1)c1ccc2c3c1CCN3CCNC2 : 6.44
CNC(=O)c1ccc2c3c1C(CC(F)F)CN3CCNC2 (racemic) : 7.64

P. CC(C)OCCNC(=O)c1ccc2c3c1CCN3CCNC2
Q. CCCCNC(=O)c1ccc2c3c1CCN3CCNC2
R. O=C(NC1CC1)c1ccc2c3c1CCN3CCNC2
S. CCOCCNC(=O)c1ccc2c3c1CCCN3CCNC2
T. O=C(NCCOc1ccccc1)c1ccc2c3c1CCN3CCNC2
Q: Falling order of pEC50, please. To answer, write out the labels according to the requested order.
Result: T, P, Q, S, R
(T: 7.68, P: 7.24, Q: 7.04, S: 6.71, R: 6.40)

a. COCCNC(=O)c1ccc2c3c1CCCN3CCNC2
b. CCC1CN2CCNCc3ccc(C(=O)NCCF)c1c32 (racemic)
Q: # returns the entry with the larger pEC50; inputs a and b Please indicate the selected item by its label.
Result: b
(b: 7.10, a: 6.48)

a. NC(=O)c1ccc2c3c1CCN3CCNC2
b. CCOCCNC(=O)c1ccc2c3c1CCN3CCNC2
c. COC(C)CNC(=O)c1ccc2c3c1CCN3CCNC2 (stereo unspecified)
d. O=C(NCC(F)(F)F)c1ccc2c3c1C(CC(F)(F)F)CN3CCNC2 (racemic)
e. O=C(NCC(F)F)c1ccc2c3c1CCN3CCNC2
Q: Sort these compounds on pEC50 so the largest reading comes first. Provide the labels, sequenced as the question asks.
Result: b, d, e, c, a
(b: 7.48, d: 6.75, e: 6.40, c: 6.09, a: 5.57)

P. O=C(NCCF)c1ccc2c3c1CCN3CCNC2
Q. CCSCCNC(=O)c1ccc2c3c1CCN3CCNC2
R. CCNC(=O)c1ccc2c3c1C(CC(F)(F)F)CN3CCNC2 (racemic)
S. COCC(C)NC(=O)c1ccc2c3c1CCN3CCNC2 (stereo unspecified)
Q: Task field, ranking: reported pEC50, descending order. I would appreciate it if you listed the labels in the requested order.
Result: Q, R, P, S
(Q: 7.82, R: 7.35, P: 6.37, S: 5.13)

* * *

molecular target: 5-hydroxytryptamine receptor 2C (Homo sapiens, UniProt P28335)
pEC50: −log10 of the molar value.
# pEC50 annotations

CS(=O)(=O)CCNC(=O)c1ccc2c3c1CCN3CCNC2 : < 4.30
CN(C)C(=O)c1ccc2c3c1CCN3CCNC2 : < 4.52

Okay, now this compound:
Q: Provide pEC50, tested on 5-hydroxytryptamine receptor 2C (Homo sapiens, UniProt P28335), for `O=C(NCC(F)(F)F)c1ccc2c3c1CCN3CCNC2` .
Result: < 4.30
